// reported ED50 writhing test per item
Parameters: species or system mice
assayContext: mouse, in vivo, sc

>>> print(df.to_string())
                                   compound       resultvalue
0      Oc1cccc(CCN(CCc2cccc(O)c2)CC2CCC2)c1  1.59 mg/kg, s.c.
1        Oc1cccc(CCN(CCc2ccccc2)CC2CCCC2)c1  0.54 mg/kg, s.c.
2  Cl.Oc1cccc(CCN(CCc2ccccc2)CC2CC2)c1 [HS666, reference compound]  3.23 mg/kg, s.c.

Recorded result, Oc1cccc(CCN(CCc2ccccc2)CC2CCCCC2)c1F , ED50 writhing test: 1.20 mg/kg, s.c.

Recorded result, Oc1cccc(CCN(CCc2ccccc2)CC2CCCCC2)c1 , ED50 writhing test: 0.97 mg/kg, s.c.

Recorded result, Oc1cccc(CCN(CCc2ccccc2)CC2CCC2)c1 [HS665, reference compound] , ED50 writhing test: 1.91 mg/kg, s.c.

====

studyTarget: human MOR (Homo sapiens, UniProt P35372)
Construct: expressed in transfected cells; host or cells: CHO cells (membranes)
Sequence (P35372 whole entry): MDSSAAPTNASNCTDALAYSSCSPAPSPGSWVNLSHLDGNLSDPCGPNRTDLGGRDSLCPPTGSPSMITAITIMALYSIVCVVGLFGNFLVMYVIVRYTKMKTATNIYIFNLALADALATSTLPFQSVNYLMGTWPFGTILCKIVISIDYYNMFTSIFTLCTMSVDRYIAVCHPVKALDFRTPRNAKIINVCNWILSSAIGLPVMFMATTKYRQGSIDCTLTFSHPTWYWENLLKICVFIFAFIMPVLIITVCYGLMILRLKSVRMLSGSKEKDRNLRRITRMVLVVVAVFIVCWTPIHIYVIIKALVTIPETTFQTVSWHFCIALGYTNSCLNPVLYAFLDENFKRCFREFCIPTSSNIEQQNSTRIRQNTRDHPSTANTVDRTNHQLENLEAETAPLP
protocolNotes: Opioid receptor binding assay, competition binding, CHO cell membranes (MOR)
assayContext: membranes from CHO cells stably expressing human MOR; read-out: Affinity Ki MOR
The class of a record is decided solely by its measured Ki; consult lower range = under 400 nM, middle range = from 400 nM up to 500 nM, upper range = 500 nM and over

# count of solved cases: 3
In [3]: df
Out[3]:
                                   compound                               studytarget  assignedcategory
0  Cl.Oc1cccc(CCN(CCc2ccccc2)CC2CC2)c1 [HS666, Hydrochloride, reference compound]  human MOR (Homo sapiens, UniProt P35372)       upper range
1  Oc1cccc(CCN(CCc2cccc(O)c2)CC2CCC2)c1 [Compound 12]  human MOR (Homo sapiens, UniProt P35372)       lower range
2  Oc1cccc(CCN(CCc2cccc(O)c2)CC2CCCC2)c1 [Compound 39]  human MOR (Homo sapiens, UniProt P35372)       upper range

Which category does the recorded Ki put Oc1cccc(CCN(CCc2ccccc2)Cc2ccccc2)c1 [Compound 4] in?
middle range

Which category does the recorded Ki put Oc1cccc(CCN(CCc2cccc(O)c2F)CC2CCC2)c1 [Compound 53] in?
upper range

Which category does the recorded Ki put COc1cccc(CCN(CCc2ccc(O)cc2)CC2CCCC2)c1 [Compound 27] in?
lower range

Which category does the recorded Ki put Oc1cccc(CCN(CCc2ccccc2)CC2CCC2)c1F [Compound 49] in?
middle range

Which category does the recorded Ki put Oc1cccc(CCN(CCc2cccc(O)c2)CC2CCCCC2)c1 [Compound 29] in?
lower range

Which category does the recorded Ki put Oc1cccc(CCN(CCc2ccccc2)CC2CCCCC2)c1 [Compound 3] in?
middle range

Which category does the recorded Ki put Oc1cccc(CCN(CCc2ccccc2)CC2CCCCC2)c1F [Compound 51] in?
upper range

====

studyTarget: KOR (Homo sapiens, UniProt P41145)
Sequence (P41145 whole entry): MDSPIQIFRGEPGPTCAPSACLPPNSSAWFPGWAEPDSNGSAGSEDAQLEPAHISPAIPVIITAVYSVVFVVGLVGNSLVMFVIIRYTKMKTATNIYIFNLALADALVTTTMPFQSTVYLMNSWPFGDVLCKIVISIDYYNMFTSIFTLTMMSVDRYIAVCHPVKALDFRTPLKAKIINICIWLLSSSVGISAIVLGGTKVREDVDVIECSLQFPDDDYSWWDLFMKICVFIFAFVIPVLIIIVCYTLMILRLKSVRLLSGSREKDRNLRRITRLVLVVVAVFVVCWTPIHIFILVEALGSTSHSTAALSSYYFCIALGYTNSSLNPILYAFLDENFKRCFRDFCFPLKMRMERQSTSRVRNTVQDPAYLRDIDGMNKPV
protocolNotes: biochemical
Type: binding
Design: expressed in transfected cells; host or cells: CHO cells (membranes)
Under this convention, YES denotes Ki strictly below 0.2 nM and NO denotes Ki at or above 0.2 nM.

# count of solved cases: 5
In [3]: df
Out[3]:
                  compoundstructurestring  assignedcategory
0   Oc1cccc(CCN(CCc2cccc(O)c2)CC2CCCC2)c1                NO
1      Oc1cccc(CCN(CCc2ccccc2)CC2CCC2)c1F               YES
2     Oc1cccc(CCN(CCc2ccccc2)CC2CCCCC2)c1               YES
3  Oc1cccc(CCN(CCc2cccc(O)c2)CC2CCCCC2)c1               YES
4    Oc1cccc(CCN(CCc2cccc(O)c2)CC2CCC2)c1                NO

Strictly below 0.2 nM in Ki? COc1cccc(CCN(CCc2ccc(O)cc2)CC2CCCC2)c1
YES

Strictly below 0.2 nM in Ki? Oc1cccc(CCN(CCc2ccccc2)CC2CCCCC2)c1F
YES

====

studyTarget: KOR (Homo sapiens)
protocolNotes: KOR-mediated β-arrestin2 recruitment, DiscoveRx PathHunter assay, U2OS-hMOR-β-arrestin2 cells
Assay type: cell-based
experimentalEndpoint: Bias factor
API doc: respond with a numeric literal and nothing else, no unit.

Sample records with Bias factor:
>>> print(df.to_string())
                                compound  resultvalue
0    Oc1cccc(CCN(CCc2ccccc2)CC2CCCCC2)c1         2909
1  Oc1cccc(CCN(CCc2cccc(O)c2F)CC2CCC2)c1          263

Recorded result, Oc1cccc(CCN(CCc2ccccc2)CC2CCCCC2)c1F , Bias factor: 1514

Recorded result, Cl.Oc1cccc(CCN(CCc2ccccc2)CC2CC2)c1 [HS666, reference compound] , Bias factor: 18

Recorded result, Oc1cccc(CCN(CCc2ccccc2)Cc2ccccc2)c1 , Bias factor: 1172

Recorded result, Oc1cccc(CCN(CCc2ccccc2)CC2CCC2)c1F , Bias factor: 82

====

Quick record: pKi, human DOR (Homo sapiens).
Lab note: report pKi as minus log10 of the concentration in molar units, number only.

                  compoundstructurestring               studytarget  resultvalue
0     Oc1cccc(CCN(CCc2ccccc2)CC2CCCCC2)c1  human DOR (Homo sapiens)         5.67
1  COc1cccc(CCN(CCc2ccc(O)cc2)CC2CCCC2)c1  human DOR (Homo sapiens)         5.20
2   Oc1cccc(CCN(CCc2cccc(O)c2F)CC2CCC2)c1  human DOR (Homo sapiens)         5.32
3      Oc1cccc(CCN(CCc2ccccc2)CC2CCCC2)c1  human DOR (Homo sapiens)         5.28
4     Oc1cccc(CCN(CCc2ccccc2)Cc2ccccc2)c1  human DOR (Homo sapiens)         5.73

--- query ---
Recorded result, Oc1cccc(CCN(CCc2cccc(O)c2)CC2CCC2)c1 , pKi: 5.38
